tested-target: human TLR8 (Homo sapiens, UniProt Q9NR97)
Construct: expressed in transfected cells; host or cells: HEK293 (HEK-Blue-8)
Sequence (Q9NR97 27-1041): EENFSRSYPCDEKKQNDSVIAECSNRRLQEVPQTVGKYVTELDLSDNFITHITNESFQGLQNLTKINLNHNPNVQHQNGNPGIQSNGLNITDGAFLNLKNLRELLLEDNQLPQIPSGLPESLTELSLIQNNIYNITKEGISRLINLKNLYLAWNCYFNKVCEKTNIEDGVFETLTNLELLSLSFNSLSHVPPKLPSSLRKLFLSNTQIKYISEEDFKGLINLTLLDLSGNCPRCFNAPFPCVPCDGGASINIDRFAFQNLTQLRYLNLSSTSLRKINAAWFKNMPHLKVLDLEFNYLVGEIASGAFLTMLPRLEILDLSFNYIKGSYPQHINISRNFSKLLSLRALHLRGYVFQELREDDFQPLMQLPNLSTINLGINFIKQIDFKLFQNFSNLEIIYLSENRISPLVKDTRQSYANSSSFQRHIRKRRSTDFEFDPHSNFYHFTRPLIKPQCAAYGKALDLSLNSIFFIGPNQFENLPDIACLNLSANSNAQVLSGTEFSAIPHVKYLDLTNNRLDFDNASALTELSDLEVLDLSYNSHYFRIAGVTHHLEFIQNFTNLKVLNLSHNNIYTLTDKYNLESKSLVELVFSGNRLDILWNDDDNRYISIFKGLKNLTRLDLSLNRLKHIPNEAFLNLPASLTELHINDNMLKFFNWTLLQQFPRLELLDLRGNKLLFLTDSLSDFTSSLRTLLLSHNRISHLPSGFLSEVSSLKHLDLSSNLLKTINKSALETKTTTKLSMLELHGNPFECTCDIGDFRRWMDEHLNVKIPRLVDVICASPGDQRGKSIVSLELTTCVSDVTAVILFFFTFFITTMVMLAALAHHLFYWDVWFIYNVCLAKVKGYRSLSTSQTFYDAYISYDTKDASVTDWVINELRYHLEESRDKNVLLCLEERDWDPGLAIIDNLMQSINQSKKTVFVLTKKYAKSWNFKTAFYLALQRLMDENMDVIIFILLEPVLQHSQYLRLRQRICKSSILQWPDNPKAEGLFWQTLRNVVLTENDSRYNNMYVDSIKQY
run-description: Human TLR8 reporter gene assay (NF-κB induction), HEK-Blue-8 cells
Type: cell-based
condition-details: primary screens; read-out: TLR8-agonistic activity EC50
property-measured: EC50 (µM)
Provide the reading as a plain figure in µM.

Incoming: Reported EC50, compound CCCCCn1c(N)nc2c(OC)cccc21 [Compound A31e] : ____
Outgoing: 3.74

Incoming: EC50 lookup needed for `CCCCCn1c(N)nc2c3ccccc3ccc21` , thanks.
Outgoing: 3.16

Incoming: Find the recorded EC50 belonging to CCCCCn1c(N)nc2ccccc21 [Compound A8b, 1-Pentyl-1H-benzo[d]imidazol-2-amine] and report it.
Outgoing: 3.23

Incoming: EC50 lookup needed for CCCCCn1c(N)nc2c(C)cccc21 [Compound A31a] , thanks.
Outgoing: 1.13

* * *

Exercise: state measured pEC50 for each of the compounds provided.
Test system: human PBMCs
run-description: IFN-α induction in human PBMCs (ELISA)
Type: cell-based
condition-details: PBMC
FYI, pEC50 means -log10 of a concentration in mol per litre.

Incoming: What value of pEC50 has been recorded for this entry: CCCCc1nc2c(N)nc(NCc3ccco3)cc2n1Cc1ccccc1 [Compound 19k]
Outgoing: 6.15

Incoming: Returns the measured pEC50 for the input compound. Input: CCCCc1nc2c(N)nc(NCc3ccc(CN)cc3)cc2n1Cc1ccccc1 [Compound 19p]
Outgoing: 6.52

* * *

tested-target: human TLR8 (Homo sapiens, UniProt Q9NR97)
Construct: expressed in transfected cells; host or cells: HEK293 (HEK-Blue-8)
run-description: Human TLR8 reporter gene assay (NF-κB induction), HEK-Blue-8 cells
Assay type: cell-based
condition-details: primary screens
property-measured: TLR8-agonistic activity EC50

Examples from the recorded data:
CCCCCn1c(N)nc2c(-c3ccccc3)cccc21 [Compound A31l]    abrogated activity
CCCCCn1c(N)nc2c(Cc3ccccc3)cccc21 [Compound A31m]    abrogated activity
CCCCCn1c(N)nc2c(OCc3ccccc3)cccc21    abrogated activity
CCCCC1(O)C(N)=Nc2ccccc21 (stereo not shown)    inactive

Incoming: Which TLR8-agonistic activity EC50 reading was recorded for the compound `CCCCCn1c(N)nc2c([N+](=O)[O-])cccc21` ?
Outgoing: inactive

* * *

Please go through the items and note down their pEC50.
tested-target: human TLR7 (Homo sapiens)
Construct: expressed in transfected cells; host or cells: HEK293 (HEK-Blue-7)
Sequence (Q9NYK1 27-1049): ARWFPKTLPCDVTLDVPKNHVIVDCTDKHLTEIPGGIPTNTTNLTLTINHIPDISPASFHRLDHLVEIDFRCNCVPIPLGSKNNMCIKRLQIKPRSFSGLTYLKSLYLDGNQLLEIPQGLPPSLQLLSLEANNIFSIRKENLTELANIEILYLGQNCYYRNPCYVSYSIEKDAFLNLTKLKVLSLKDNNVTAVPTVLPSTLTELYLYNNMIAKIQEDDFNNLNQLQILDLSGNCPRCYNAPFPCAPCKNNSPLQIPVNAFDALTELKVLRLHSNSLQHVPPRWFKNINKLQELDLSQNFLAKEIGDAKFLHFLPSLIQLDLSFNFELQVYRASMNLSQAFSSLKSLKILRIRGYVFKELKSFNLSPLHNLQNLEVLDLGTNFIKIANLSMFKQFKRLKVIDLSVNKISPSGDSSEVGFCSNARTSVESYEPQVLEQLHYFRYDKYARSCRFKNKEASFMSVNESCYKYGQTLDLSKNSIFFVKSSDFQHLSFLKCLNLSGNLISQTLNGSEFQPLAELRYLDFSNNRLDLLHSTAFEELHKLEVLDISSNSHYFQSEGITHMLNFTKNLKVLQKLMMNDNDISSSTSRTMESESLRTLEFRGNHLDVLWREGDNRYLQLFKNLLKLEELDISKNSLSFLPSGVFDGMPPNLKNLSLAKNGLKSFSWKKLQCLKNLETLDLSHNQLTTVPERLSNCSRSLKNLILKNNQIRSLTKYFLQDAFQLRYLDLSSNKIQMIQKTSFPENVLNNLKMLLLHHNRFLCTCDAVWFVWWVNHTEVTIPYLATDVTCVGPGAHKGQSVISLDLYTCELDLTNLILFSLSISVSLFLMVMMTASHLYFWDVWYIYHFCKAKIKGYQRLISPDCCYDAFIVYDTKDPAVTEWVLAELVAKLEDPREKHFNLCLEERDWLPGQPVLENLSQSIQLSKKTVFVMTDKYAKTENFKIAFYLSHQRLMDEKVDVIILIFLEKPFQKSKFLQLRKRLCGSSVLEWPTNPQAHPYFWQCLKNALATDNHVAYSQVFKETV
run-description: Human TLR7 reporter gene assay (NF-κB induction), HEK-Blue-7 cells
Assay type: cell-based
condition-details: primary screen; read-out: TLR7-specific agonistic activity EC50
Please report pEC50 as the negative decimal logarithm of the molar concentration, giving only the number.

Incoming: Which pEC50 value is on record for CCCCc1nc2c(N)nccc2n1Cc1ccccc1 [Compound 5] ?
Outgoing: 5.80

Incoming: Query: pEC50; subject: CCCCc1nc2c(N)nc(NCc3cccc(CN)c3)cc2n1Cc1ccccc1 [Compound 19q]
Outgoing: 6.43

Incoming: Query: pEC50; subject: CCCCc1nc2c(N)nc3ccccc3c2n1Cc1ccccc1 [reference compound]
Outgoing: 7.22

* * *

run-description: Metabolic stability in human foreskin fibroblasts (microdialysis, LC-MS/MS)
Type: in vitro ADME
condition-details: human, human foreskin fibroblasts (HFFs)
property-measured: half-life

Incoming: Which value of half-life has been reported for CCCCc1nc2c(N)nc(NCc3ccc(CN)cc3)cc2n1Cc1ccccc1 [Compound 19p] in the records?
Outgoing: < 1 h
